# targetOfAssay: human TRPA1 (Homo sapiens, UniProt O75762)
# Sequence (O75762 whole entry): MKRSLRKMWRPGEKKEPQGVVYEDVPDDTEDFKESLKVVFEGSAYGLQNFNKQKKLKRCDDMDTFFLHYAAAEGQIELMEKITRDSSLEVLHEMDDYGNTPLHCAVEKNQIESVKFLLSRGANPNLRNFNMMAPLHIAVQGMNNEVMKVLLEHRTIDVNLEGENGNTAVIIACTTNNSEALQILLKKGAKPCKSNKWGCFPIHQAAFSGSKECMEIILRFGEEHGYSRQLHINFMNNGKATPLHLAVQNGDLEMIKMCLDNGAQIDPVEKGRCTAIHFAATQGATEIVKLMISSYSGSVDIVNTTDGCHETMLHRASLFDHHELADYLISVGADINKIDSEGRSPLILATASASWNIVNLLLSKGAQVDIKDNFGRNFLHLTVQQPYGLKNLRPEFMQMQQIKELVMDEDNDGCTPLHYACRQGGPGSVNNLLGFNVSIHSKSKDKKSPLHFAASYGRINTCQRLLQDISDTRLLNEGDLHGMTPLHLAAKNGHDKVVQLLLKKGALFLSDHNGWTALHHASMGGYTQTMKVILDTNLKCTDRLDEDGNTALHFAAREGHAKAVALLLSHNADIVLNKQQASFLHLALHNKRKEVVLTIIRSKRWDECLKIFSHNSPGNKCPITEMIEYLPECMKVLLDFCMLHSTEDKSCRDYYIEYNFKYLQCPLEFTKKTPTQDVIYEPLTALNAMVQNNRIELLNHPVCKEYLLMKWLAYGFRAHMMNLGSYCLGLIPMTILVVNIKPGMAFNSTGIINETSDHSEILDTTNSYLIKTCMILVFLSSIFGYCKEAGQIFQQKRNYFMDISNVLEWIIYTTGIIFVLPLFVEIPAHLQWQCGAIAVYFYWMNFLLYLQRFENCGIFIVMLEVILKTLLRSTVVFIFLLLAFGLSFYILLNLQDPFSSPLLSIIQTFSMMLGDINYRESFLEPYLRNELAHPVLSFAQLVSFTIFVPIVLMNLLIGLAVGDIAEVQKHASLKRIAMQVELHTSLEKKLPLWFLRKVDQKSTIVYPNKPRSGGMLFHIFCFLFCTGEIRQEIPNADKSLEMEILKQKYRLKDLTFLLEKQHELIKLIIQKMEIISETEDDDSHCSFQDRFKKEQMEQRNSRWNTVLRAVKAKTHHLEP
# assayOverview: Measurement of TRPA1 antagonist activity (intracellular calcium increase, FLIPR)
# reportedConditions: 293T cells transfected with human TRPA1 expression plasmid, allylisothiocyanate 20 μM stimulation, calcium fluorescence, read-out: antagonism hTRPA1
measuredParameter: IC50 (nM)

{"compound": "C[C@H](NC(=O)[C@@H]1C=CCN1S(=O)(=O)c1ccc(Cl)s1)c1nc(-c2ccc(C(F)(F)F)cc2)cs1 [compound 24]", "endpointResult": 470}
{"compound": "C[C@H](NC(=O)[C@@H]1CCCN1S(=O)(=O)c1ccc(Cl)s1)c1nc(-c2ccc(OC(F)(F)F)cc2)cs1 [compound 11]", "endpointResult": 480}
{"compound": "O=C(NCc1nc(-c2ccc(Cl)cc2)cs1)[C@@H]1CCCN1S(=O)(=O)c1ccc(Cl)s1 [compound 2]", "endpointResult": 670}
